Exercise: state measured log10(Ki) for each of the compounds provided.
biological target: 5-hydroxytryptamine receptor 6 (Homo sapiens, UniProt P50406)
Sequence (P50406 whole entry): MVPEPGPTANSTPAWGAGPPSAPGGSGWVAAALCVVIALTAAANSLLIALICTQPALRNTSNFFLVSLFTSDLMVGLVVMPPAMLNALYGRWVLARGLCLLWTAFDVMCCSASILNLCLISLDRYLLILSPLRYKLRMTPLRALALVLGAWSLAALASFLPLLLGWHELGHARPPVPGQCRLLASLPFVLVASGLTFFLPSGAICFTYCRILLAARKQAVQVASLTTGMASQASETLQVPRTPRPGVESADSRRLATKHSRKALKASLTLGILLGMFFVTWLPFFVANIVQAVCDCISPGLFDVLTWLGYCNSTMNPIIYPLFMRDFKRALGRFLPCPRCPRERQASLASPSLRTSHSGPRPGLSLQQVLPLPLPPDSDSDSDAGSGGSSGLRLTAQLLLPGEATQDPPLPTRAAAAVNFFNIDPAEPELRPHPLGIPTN
Transform log10 | Measure Ki | Unit nM

If you can, please state the reported log10(Ki) value of CCN1CCCC(n2cc(S(=O)(=O)c3ccc(Cl)cc3)c3cccnc32)C1 (stereo not given) . 1.52

Consider next the compound CCN1CCC(n2cc(S(=O)(=O)c3c(Cl)nc4sccn34)c3cccnc32)C1 (stereo not given) in the same way. 0.15

Quick one: CCN1CCCC(n2cc(S(=O)(=O)c3c(Cl)nc4sccn34)c3cccnc32)C1 (stereo not given) -0.15

Entry CN1CCCC(n2cc(S(=O)(=O)c3c(Cl)nc4sccn34)c3cccnc32)C1 (stereo not given) please 0.30

Moving on to the next compound: CC(C)N1CCCC(n2cc(S(=O)(=O)c3c(Cl)nc4sccn34)c3cccnc32)C1 (stereo not given) 0.23
